Every entry's value here was drawn from paper PMC3764917.

biological target: human COX-2 (Homo sapiens); test: COX activity, commercial enzyme immunoassay kit
Sequence (P35354 18-604): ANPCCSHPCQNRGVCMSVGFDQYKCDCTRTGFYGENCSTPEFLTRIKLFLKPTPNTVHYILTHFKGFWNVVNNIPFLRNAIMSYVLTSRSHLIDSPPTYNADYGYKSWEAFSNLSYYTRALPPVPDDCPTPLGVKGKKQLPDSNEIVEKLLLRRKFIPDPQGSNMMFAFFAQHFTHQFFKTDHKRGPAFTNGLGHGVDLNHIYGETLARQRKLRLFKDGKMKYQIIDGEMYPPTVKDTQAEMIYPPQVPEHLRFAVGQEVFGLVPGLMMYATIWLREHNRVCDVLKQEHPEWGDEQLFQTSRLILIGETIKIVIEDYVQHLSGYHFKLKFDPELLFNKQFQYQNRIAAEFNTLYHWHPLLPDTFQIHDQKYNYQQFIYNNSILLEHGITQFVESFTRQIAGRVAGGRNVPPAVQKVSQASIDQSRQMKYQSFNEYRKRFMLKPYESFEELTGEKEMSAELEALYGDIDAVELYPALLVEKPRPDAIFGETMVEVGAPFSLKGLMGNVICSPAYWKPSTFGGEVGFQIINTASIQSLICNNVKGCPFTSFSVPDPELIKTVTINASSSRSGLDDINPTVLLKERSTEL

compound | COX-2 inhibition, result in words
COc1ccc(C(=O)n2c3ccc(Cl)cc3c3ccc(C(C)C(=O)O)cc32)cc1 (centres unmarked) [Compound 15e] | did not inhibit
CC(C(=O)O)c1ccc2c3cc(Cl)ccc3n(C(=O)c3ccc(F)cc3)c2c1 (centres unmarked) [Compound 15d] | did not inhibit
CC(C(=O)Nc1ccccc1)c1ccc2c(c1)[nH]c1ccc(Cl)cc12 (centres unmarked) [Compound 4b] | lack of activity
CC(C(=O)NCCO)c1ccc2c(c1)[nH]c1ccc(Cl)cc12 (centres unmarked) [Compound 4a] | lack of activity
